Source listed as ChEMBL document CHEMBL1124729.

As shown below, each of these compounds has a reported inhibition value.
- System: Nucleic Acid
- Protocol summary: The compound was tested for inhibitory activity against DNA relaxation by DNA topoisomerase I at dose 30 uM
- Type: functional

Prompt: Fill in: inhibition of CCC1(O)C(=O)OCc2cc3c(cc21)-c1nc2ccccc2cc1C3 (centres undefined) is ___
Completion: 6%

Prompt: Field request: inhibition | item: "CC[C@@]1(O)C(=O)OCc2c1cc1n(c2=O)Cc2cc3ccccc3nc2-1"
Completion: 85%

Prompt: I have this compound here, CCC1(O)C(=O)OCc2c1cc1n(c2=O)Cc2cc3ccccc3nc2-1 (centres undefined) , and I need its recorded inhibition.
Completion: 48%

Kindly consider the entry below.
Prompt: Which inhibition value is on record for CCC1(O)C(=O)OCc2c1ccc1c2-c2nc3ccccc3cc2C1 (centres undefined) ?
Completion: 0%
